# protocol_details: Foam appearance (color, odor, form)
# Assay type: physicochemical
# condition_info: active agent in stock of propylene glycol 91, stearyl alcohol 2, Klucel EF 2, laureth-4 2, glyceryl monostearate/PEG 100 stearate 3 (second Example 29)
Counter-ions that a name gives are not always drawn.
readout_label: COLOR

A selection of reference data follows.
Lookup: What value of COLOR has been reported for the following molecule? O=C(O)c1ccccc1O [Salicylic acid]
Found: O.W

Lookup: Another molecule to look at: CN(C/C=C/C#CC(C)(C)C)Cc1cccc2ccccc12 [Terbinafine HCl]
Found: W

Lookup: Another molecule to look at: CCCCC(=O)O[C@]1(C(=O)CO)[C@@H](C)C[C@H]2[C@@H]3CCC4=CC(=O)C=C[C@]4(C)[C@@]3(F)[C@@H](O)C[C@@]21C [Betamethasone 17 valerate micronized, Betamethasone 17 valerate]
Found: W

Lookup: Another molecule to look at: Cn1c(=O)c2c(ncn2C)n(C)c1=O [Caffeine]
Found: W

Lookup: Another molecule to look at: Nc1nc2c(ncn2COCCO)c(=O)[nH]1 [Acyclovir]
Found: O.W

Lookup: Another molecule to look at: CN1C(C(=O)Nc2ccccn2)=C(O)c2ccccc2S1(=O)=O [Piroxicam]
Found: O.W

API: the following record is the query input.
Lookup: What value of COLOR has been reported for the following molecule? O=C(O)Cc1ccccc1Nc1c(Cl)cccc1Cl [Diclofenac sodium]
Found: W
